Please go through the items and note down their pEC50.
# SUBJECT OF TEST: recombinant MEN1 protein and fluorescein-labeled MLL4-43 peptide (Homo sapiens, UniProt O00255)
# Sequence (O00255 1-610): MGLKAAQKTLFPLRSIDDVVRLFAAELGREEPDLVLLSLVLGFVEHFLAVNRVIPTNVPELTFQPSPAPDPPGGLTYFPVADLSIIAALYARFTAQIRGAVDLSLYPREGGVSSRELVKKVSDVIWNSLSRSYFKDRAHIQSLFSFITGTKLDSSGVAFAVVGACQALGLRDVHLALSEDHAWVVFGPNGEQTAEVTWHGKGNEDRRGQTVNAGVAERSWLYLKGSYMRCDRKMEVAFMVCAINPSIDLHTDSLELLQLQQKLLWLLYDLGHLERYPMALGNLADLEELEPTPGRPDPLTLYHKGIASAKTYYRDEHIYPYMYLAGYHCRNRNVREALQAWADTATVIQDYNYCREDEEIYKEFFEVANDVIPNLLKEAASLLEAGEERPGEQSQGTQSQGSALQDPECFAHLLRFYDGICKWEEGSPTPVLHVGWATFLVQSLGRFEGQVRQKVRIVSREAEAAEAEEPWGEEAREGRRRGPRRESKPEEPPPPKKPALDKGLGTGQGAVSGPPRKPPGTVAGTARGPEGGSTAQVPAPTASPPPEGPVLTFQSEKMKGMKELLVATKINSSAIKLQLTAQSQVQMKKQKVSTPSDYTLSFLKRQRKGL
# ASSAY REMARKS: Primary fluorescence polarization assay of MEN1 / MLL4-43 interaction inhibition
# TEST SETTINGS: MEN1 10 nM, MLL4-43 0.5 nM, 1 hour at room temperature
pEC50: −log10 of the molar value.

Recall and state the measured pEC50 for CCS(=O)(=O)Nc1ccc(CN2CCC3(CC2)CN(c2ncnc4ccc(CCc5ccncc5)cc24)C3)cc1 [Compound 49] . 5.30 to 6.00

Recall and state the measured pEC50 for FC(F)(F)Cc1ccc2ncnc(N3CC4(CCN(Cc5ccc6[nH]ccc6c5)CC4)C3)c2c1 [Compound 90] . 6.00 to 6.30

Recall and state the measured pEC50 for CCS(=O)(=O)N[C@H]1CC[C@H](CN2CCC3(CC2)CN(c2ncnc4ccc(C#Cc5ccccc5)cc24)C3)CC1 [Compound 53] . < 5.30

Recall and state the measured pEC50 for CCS(=O)(=O)Nc1ccc(CN2CCC(Nc3ncnc4ccc(CC(F)(F)F)cc34)CC2)cc1 [Compound 36] . 5.30 to 6.00

Recall and state the measured pEC50 for CCS(=O)(=O)NC1CCc2cc(CN3CCC4(CC3)CN(c3ncnc5ccc(CC(F)(F)F)cc35)C4)cc(F)c2C1 (racemic) [Compound 77] . 5.30 to 6.00

Recall and state the measured pEC50 for CCS(=O)(=O)N[C@H]1CC[C@H](CN2CCC3(CC2)CN(c2ncnc4ccc(CCc5cccc(F)c5)cc24)C3)CC1 [Compound 61] . 6.30 to 7.12

Recall and state the measured pEC50 for CCS(=O)(=O)Nc1ccc(CN2CCC3(CC2)CCN(c2ncnc4ccc(CC(F)(F)F)cc24)CC3)cc1 [Compound 1] . 5.30 to 6.00

* * *

Please go through the items and note down their pEC50.
# SUBJECT OF TEST: recombinant MEN1 protein and fluorescein-labeled MLL4-43 peptide (Homo sapiens)
# ASSAY REMARKS: Primary fluorescence polarization assay of MEN1 / MLL4-43 interaction inhibition
# TEST SETTINGS: MEN1 10 nM, MLL4-43 0.5 nM, 1 hour at room temperature
pEC50: −log10 of the molar value.

Recall and state the measured pEC50 for CCS(=O)(=O)N[C@H]1CC[C@H](CN2CCC3(CC2)CN(c2ncnc4ccc(CC(F)(F)F)cc24)C3)CC1 . ≥ 7.12

Recall and state the measured pEC50 for CCS(=O)(=O)N1CCc2cc(CN3CCC4(CC3)CN(c3ncnc5ccc(CC(F)(F)F)cc35)C4)ccc2C1 . 6.30 to 7.12

Recall and state the measured pEC50 for CCS(=O)(=O)Nc1ccc(CN2CCC3(CC2)CN(c2ncnc4ccc(CC(F)(F)F)cc24)C3)cc1OCC(C)N1CCN(S(C)(=O)=O)CC1 (racemic) . < 5.30

Recall and state the measured pEC50 for CCS(=O)(=O)N[C@H]1CC[C@H](CN2CCC3(CC2)CN(c2ncnc4ccc(CC(C)c5ccccc5)cc24)C3)CC1 (mixture of isomers) . 6.30 to 7.12

Recall and state the measured pEC50 for CCS(=O)(=O)N[C@H]1CC[C@H](CN2CCC3(CC2)CN(c2ncnc4ccc(CCc5ccncc5)cc24)C3)CC1 . 6.00 to 6.30

Recall and state the measured pEC50 for FC(F)(F)Cc1ccc2ncnc(N3CC4(CCN(Cc5ccc6cc[nH]c6c5)CC4)C3)c2c1 . ≥ 7.12

Recall and state the measured pEC50 for CCS(=O)(=O)Nc1ccc(CN2CCC(Nc3ncnc4cc(CC(F)(F)F)ccc34)CC2)cc1 . < 5.30

Recall and state the measured pEC50 for CCS(=O)(=O)N[C@H]1CC[C@H](CN2CCC3(CC2)CN(c2ncnc4ccc(CCc5nc(C)no5)cc24)C3)CC1 . 5.30 to 6.00

Recall and state the measured pEC50 for CCS(=O)(=O)Nc1ccc(CN2CCC3(CC2)CN(c2nc(NC)nc4ncccc24)C3)cc1 . < 5.30

Recall and state the measured pEC50 for CCS(=O)(=O)Nc1ccc(CN2CCC3(CC2)CN(c2ncnc4ccccc24)C3)cc1 . < 5.30

Recall and state the measured pEC50 for CCS(=O)(=O)N[C@H]1CC[C@H](CN2CCC3(CC2)CN(c2ncnc4ccc(CCc5ccccc5)cc24)C3)CC1 . 6.00 to 6.30

Recall and state the measured pEC50 for CCS(=O)(=O)N[C@H]1CC[C@H](Cn2cc(CNc3ncnc4ccc(CC(F)(F)F)cc34)nn2)CC1 . < 5.30

Recall and state the measured pEC50 for CCS(=O)(=O)N[C@H]1CC[C@H](CN2CCC3(CC2)CCN(c2ncnc4cc(CC(F)(F)F)ccc24)CC3)CC1 . 5.30 to 6.00

Recall and state the measured pEC50 for CCS(=O)(=O)Nc1ccc(CN2CCC3(CC2)CN(c2ncnc4ccc(CC(F)(F)F)cc24)C3)cc1C(=O)NCCN1CCOCC1 . < 5.30

* * *

Please go through the items and note down their CC50.
# Test system: MOLM-13
# ASSAY REMARKS: MOLM-13 Cellular Growth Inhibition Assay (CellTiter-Glo)
# Type: cell-based
# TEST SETTINGS: Homo sapiens, 168 h, MOLM-13 cells, 7 days of incubation

Give CC50 only, for CCS(=O)(=O)N[C@H]1CC[C@H](CN2CCC3(CC2)CN(c2ncnc4ccc(CC(F)(F)F)cc24)C3)CC1 [Compound 5] , using MOLM-13 data. 1 to 5 µM

Give CC50 only, for CCS(=O)(=O)Nc1ccc(CN2CCC3(CC2)CCN(c2ncnc4ccc(CC(F)(F)F)cc24)CC3)cc1 [Compound 1] , using MOLM-13 data. 5 to 10 µM

Give CC50 only, for CCS(=O)(=O)N[C@H]1CC[C@H](CN2CCC(Nc3ncnc4ccc(CC(F)(F)F)cc34)C2)CC1 (mixture of isomers) [Compound 71] , using MOLM-13 data. > 20 µM

Give CC50 only, for CCS(=O)(=O)N[C@H]1CC[C@H](CN2CCC3(CC2)CN(c2ncnc4ccc(CCc5ccncc5)cc24)C3)CC1 [Compound 48] , using MOLM-13 data. > 20 µM

Give CC50 only, for CCS(=O)(=O)N[C@H]1CC[C@H](CN2CCC3(CC2)CN(c2ncnc4ncc(CC(F)(F)F)cc24)C3)CC1 [Compound 65] , using MOLM-13 data. 1 to 5 µM

Give CC50 only, for CCNS(=O)(=O)c1ccc(CN2CC3(CCN(c4ncnc5ccc(CC(F)(F)F)cc45)CC3)C2)cc1 [Compound 45] , using MOLM-13 data. 5 to 10 µM

Give CC50 only, for O=C1COc2cc(CN3CCC4(CC3)CN(c3ncnc5ccc(CC(F)(F)F)cc35)C4)ccc2N1 [Compound 75] , using MOLM-13 data. 1 to 5 µM

Give CC50 only, for FC(F)(F)Cc1ccc2ncnc(N3CC4(CCN(Cc5ccc6cc[nH]c6c5)CC4)C3)c2c1 [Compound 89] , using MOLM-13 data. 1 to 5 µM

Give CC50 only, for CCS(=O)(=O)Nc1ccc(CN2CC3(CCN(c4ncnc5ccc(CC(F)(F)F)cc45)CC3)C2)cc1 [Compound 43] , using MOLM-13 data. 5 to 10 µM

Give CC50 only, for CCS(=O)(=O)Nc1ccc(CN2CCC(Nc3ncnc4ccc(CC(F)(F)F)cc34)CC2)cc1 [Compound 36] , using MOLM-13 data. 5 to 10 µM

* * *

# SUBJECT OF TEST: recombinant MEN1 protein and fluorescein-labeled MLL4-43 peptide (Homo sapiens, UniProt O00255)
# ASSAY REMARKS: Primary fluorescence polarization assay of MEN1 / MLL4-43 interaction inhibition
# TEST SETTINGS: MEN1 10 nM, MLL4-43 0.5 nM, 1 hour at room temperature
pEC50: −log10 of the molar value.
ENDPOINT NAME: pEC50

Recall and state the measured pEC50 for c1ccc(CCc2ccc3ncnc(N4CC5(CCNCC5)C4)c3c2)cc1 [Compound P148] . < 5.30

Recall and state the measured pEC50 for CCS(=O)(=O)N[C@H]1CC[C@H](CN2CCC3(CC2)CCN(c2ncnc4ccc(CC(F)(F)F)cc24)CC3)CC1 [Compound 3] . 6.00 to 6.30

Recall and state the measured pEC50 for CCS(=O)(=O)N1Cc2ccc(CN3CCC4(CC3)CN(c3ncnc5ccc(CC(F)(F)F)cc35)C4)cc2C1 [Compound 94] . 6.30 to 7.12

Recall and state the measured pEC50 for FC(F)(F)Cc1ccc2ncnc(N3CC4(CCN(Cc5cccc6[nH]ccc56)CC4)C3)c2c1 [Compound 83] . ≥ 7.12

Recall and state the measured pEC50 for CCN(C[C@H]1CC[C@H](NS(=O)(=O)CC)CC1)c1ccc(CN2CCC3(CC2)CN(c2ncnc4ccc(CC(F)(F)F)cc24)C3)cc1 [Compound 100] . 5.30 to 6.00

Recall and state the measured pEC50 for CCS(=O)(=O)N[C@H]1CC[C@H](CNc2ccc(CN3CCC4(CC3)CN(c3ncnc5ccc(CC(F)(F)F)cc35)C4)cc2)CC1 [Compound 79] . 6.30 to 7.12

Recall and state the measured pEC50 for N#Cc1cc(CN2CCC3(CC2)CN(c2ncnc4ccc(CC(F)(F)F)cc24)C3)ccc1F [Compound 102] . 5.30 to 6.00
